Data credit: paper PMC10786891

Target: T1, EsCas13d, nuclease-dead (Eubacterium siraeum, UniProt B0MS50, R295A;H300A;R849A;H854A)
T1 sequence: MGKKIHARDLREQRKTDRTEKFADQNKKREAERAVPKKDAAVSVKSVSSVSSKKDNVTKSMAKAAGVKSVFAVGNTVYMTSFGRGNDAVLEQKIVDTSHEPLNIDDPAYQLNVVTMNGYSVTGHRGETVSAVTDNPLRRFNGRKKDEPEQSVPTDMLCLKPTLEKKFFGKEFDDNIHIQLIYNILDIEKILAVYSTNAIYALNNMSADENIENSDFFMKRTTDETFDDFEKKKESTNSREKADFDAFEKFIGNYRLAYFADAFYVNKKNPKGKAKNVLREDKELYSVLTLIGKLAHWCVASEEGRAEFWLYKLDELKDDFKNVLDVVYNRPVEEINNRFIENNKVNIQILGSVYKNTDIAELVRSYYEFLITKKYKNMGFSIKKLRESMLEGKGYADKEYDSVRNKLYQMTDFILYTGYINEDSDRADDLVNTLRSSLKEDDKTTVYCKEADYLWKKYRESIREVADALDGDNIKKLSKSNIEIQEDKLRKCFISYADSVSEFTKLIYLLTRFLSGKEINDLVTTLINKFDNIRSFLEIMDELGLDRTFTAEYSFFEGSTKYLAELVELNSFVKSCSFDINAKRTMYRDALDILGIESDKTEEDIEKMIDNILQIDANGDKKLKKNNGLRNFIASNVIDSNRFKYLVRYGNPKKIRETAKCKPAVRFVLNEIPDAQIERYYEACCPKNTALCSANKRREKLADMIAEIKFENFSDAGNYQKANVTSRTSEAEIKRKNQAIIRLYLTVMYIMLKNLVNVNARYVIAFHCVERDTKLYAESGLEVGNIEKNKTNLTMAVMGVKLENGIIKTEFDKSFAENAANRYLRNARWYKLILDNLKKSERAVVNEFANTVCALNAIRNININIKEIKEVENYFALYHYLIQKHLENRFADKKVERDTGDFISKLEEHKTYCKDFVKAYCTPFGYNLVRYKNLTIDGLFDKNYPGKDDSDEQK
Test: crRNA (strand 1, pre-loaded); Mg2+; 40 mM Tris-HCl pH 7.5, 150 mM NaCl, 6 mM MgCl2, 1 mM DTT, 0.1% Tween-20, 0.2 mg/ml BSA; 25 C; 10 min per concentration, then washed
Conditions: tags: His6-TwinStrep-SUMO cleaved; N-terminal SNAP kept (SNAP-Surface 488); label: 3' end held by stalled T7 RNA polymerase
Reported metric: Kd (nM)
Give your result in nM as a bare value.

Binder	Kd / nM
target 2 MT 5'PFS GGU 3'PFS CGA (mixed) RNA 1: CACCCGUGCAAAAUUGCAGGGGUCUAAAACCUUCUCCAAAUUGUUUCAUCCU RNA 2: GGGAAUGGAUCCACAUCUACGAAUUCGGUAGGAUGAAACAAUUUGGAGAAGCGAAGAUCGGAAGAGCACACGU	15.4
target 3 insA 3' of 22,insU 3' of 16 (mixed) RNA 1: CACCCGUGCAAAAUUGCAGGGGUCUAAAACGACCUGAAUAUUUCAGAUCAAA RNA 2: GGGAAUGGAUCCACAUCUACGAAUUCGUUUAUUGAUCUUGAAAUAUUCAGGUCUGCAGAUCGGAAGAGCACACGU	71
target 3 insG 3' of 2,insC 3' of 2 (mixed) RNA 1: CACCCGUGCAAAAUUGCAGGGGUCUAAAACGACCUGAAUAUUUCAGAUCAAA RNA 2: GGGAAUGGAUCCACAUCUACGAAUUCGUUUUUGAUCUGAAAUAUUCAGGUGCCUGCAGAUCGGAAGAGCACACGU	68.5

Input: Entry target 3 insU 3' of 3,insA 3' of 2 (mixed) RNA 1: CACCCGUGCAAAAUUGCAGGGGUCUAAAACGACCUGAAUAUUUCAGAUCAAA RNA 2: GGGAAUGGAUCCACAUCUACGAAUUCGUUUUUGAUCUGAAAUAUUCAGGUUACUGCAGAUCGGAAGAGCACACGU : reported Kd = ?
Output: 39
